Target: Quinolone resistance protein NorA (Staphylococcus aureus) (UniProt P0A0J7)
Assay: Inhibition of NorA efflux pump in Staphylococcus aureus 1199B assessed as reduction in MIC of ciprofloxacin by broth checkerboard method
// reported MEC per item
# number only, unit µg/mL dropped from output

Worked examples, 2 molecules total:
> print(dat)
                               entry.smiles  metric  reported.measurement
1       CC(C)NC(=O)/C=C/C=C/c1ccc2c(c1)OCO2     MEC                    50
2  O=C(/C=C/C=C/c1ccc2c(c1)OCO2)Nc1ccc(C(=O)Nc2ccccc2)cc1     MEC                  3.12

Record CCN(CC)C(=O)CCCCc1ccc2c(c1)OCO2 . Reported MEC: 50

The recorded MEC for O=C(O)/C=C/C=C/c1ccc2c(c1)OCO2 is 50

* * *

Biological target: Quinolone resistance protein NorA (Staphylococcus aureus) (UniProt P0A0J7)
Assay: Inhibition of NorA efflux pump in Staphylococcus aureus 1199B assessed as reduction of ciprofloxacin MIC after 24 hrs by broth checkerboard method; note: test concentration or dose not given here
# fold change (FC) per record follows
Reply with the value as a number alone.

The reported value for N#Cc1ccc(NC(=O)/C=C/C=C/c2ccc3c(c2)OCO3)cc1 in terms of fold change (FC) is 2

Short answer for O=C(O)/C=C/C=C/c1ccc2c(c1)OCO2 : fold change (FC) was 0

Please fill in: fold change (FC) reported for O=C(/C=C/C=C/c1ccc2c(c1)OCO2)Nc1nc2ccccc2s1 = 2

Summary for this molecule, NC(=O)c1ccc(NC(=O)/C=C/C=C/c2ccc3c(c2)OCO3)cc1 : fold change (FC) is 2

molecule O=C(/C=C/C=C/c1ccc2c(c1)OCO2)Nc1ccc(NC(=O)c2ccccc2)cc1 , fold change (FC) observed: 2

* * *

Biological target: Quinolone resistance protein NorA (Staphylococcus aureus) (UniProt P0A0J7)
Sequence (whole entry): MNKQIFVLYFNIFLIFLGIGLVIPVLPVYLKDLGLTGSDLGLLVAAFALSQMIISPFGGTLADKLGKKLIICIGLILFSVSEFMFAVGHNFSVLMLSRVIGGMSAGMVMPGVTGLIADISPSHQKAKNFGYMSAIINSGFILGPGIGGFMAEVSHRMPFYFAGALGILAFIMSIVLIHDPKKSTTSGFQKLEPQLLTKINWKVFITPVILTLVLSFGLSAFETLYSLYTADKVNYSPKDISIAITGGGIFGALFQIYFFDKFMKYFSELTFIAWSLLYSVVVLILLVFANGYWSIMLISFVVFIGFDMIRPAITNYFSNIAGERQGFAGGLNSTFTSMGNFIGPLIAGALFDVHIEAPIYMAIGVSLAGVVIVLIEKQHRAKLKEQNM
Assay: Inhibition of NorA efflux pump in Staphylococcus aureus 1199B assessed as potentiation of ciprofloxacin-induced antimicrobial activity after 24 hrs by broth checkerboard method
Field: label. Allowed values: Met (logPF < 2) or Not met (logPF >= 2).

Worked examples follow.
> print(dat)
                                   molecule  label.class
1  N#Cc1ccc(NC(=O)/C=C/C=C/c2ccc3c(c2)OCO3)cc1          Met
2  N#Cc1cccc(NC(=O)/C=C/C=C/c2ccc3c(c2)OCO3)c1      Not met
3     O=C(/C=C/C=C/c1ccc2c(c1)OCO2)N1CCCCC1          Met
4  CC(O)CCNC(=O)/C=C/C=C/c1ccc2c(c1)OCO2 (stereo unspecified)          Met
5  CC(=O)Nc1ccc(NC(=O)/C=C/C=C/c2ccc3c(c2)OCO3)cc1      Not met
6  NC(=O)c1ccc(NC(=O)/C=C/C=C/c2ccc3c(c2)OCO3)cc1          Met
7  O=C(/C=C/C=C/c1ccc2c(c1)OCO2)Nc1ccc2ncsc2c1      Not met
8           CCN(CC)C(=O)CCCCc1ccc2c(c1)OCO2          Met

Q) Take the molecule CC(=O)Nc1ccccc1NC(=O)CCCCc1ccc2c(c1)OCO2 and say whether its logPF is less than 2.
A) Met

Q) Consider O=C(/C=C/C=C/c1ccc2c(c1)OCO2)Nc1nc2ccccc2s1 . Does its logPF lie strictly below 2?
A) Not met

Q) Item CC(=O)Nc1ccccc1NC(=O)/C=C/C=C/c1ccc2c(c1)OCO2 : logPF beneath 2, strictly?
A) Not met

* * *

Overview of reported MEC across a group of compounds:
Molecular target: Quinolone resistance protein NorA (Staphylococcus aureus)
Sequence (whole entry): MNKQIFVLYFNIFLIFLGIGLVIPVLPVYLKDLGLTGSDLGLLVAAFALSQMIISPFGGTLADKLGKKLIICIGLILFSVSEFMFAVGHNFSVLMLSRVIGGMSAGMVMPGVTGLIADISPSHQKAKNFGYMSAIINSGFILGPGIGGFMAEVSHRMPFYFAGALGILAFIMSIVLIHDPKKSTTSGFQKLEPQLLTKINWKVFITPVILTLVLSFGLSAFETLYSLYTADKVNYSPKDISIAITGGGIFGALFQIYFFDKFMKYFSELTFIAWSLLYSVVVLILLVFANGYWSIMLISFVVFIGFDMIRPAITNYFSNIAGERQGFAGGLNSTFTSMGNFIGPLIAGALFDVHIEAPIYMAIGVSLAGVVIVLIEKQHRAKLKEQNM
Assay: Inhibition of NorA efflux pump in Staphylococcus aureus 1199B assessed as reduction in MIC of ciprofloxacin by broth checkerboard method
Report as a plain number; the unit µg/mL is understood.

> print(dat)
                               entry.smiles                             tested.system  metric  reported.measurement
1  O=C(/C=C/C=C/c1ccc2c(c1)OCO2)Nc1ccccc1CO  Quinolone resistance protein NorA (Staphylococcus aureus)     MEC                    25
2  O=C(/C=C/C=C/c1ccc2c(c1)OCO2)Nc1cccc(CO)c1  Quinolone resistance protein NorA (Staphylococcus aureus)     MEC                    25
3     O=C(/C=C/C=C/c1ccc2c(c1)OCO2)N1CCOCC1  Quinolone resistance protein NorA (Staphylococcus aureus)     MEC                    50
4      CC(C)CNC(=O)/C=C/C=C/c1ccc2c(c1)OCO2  Quinolone resistance protein NorA (Staphylococcus aureus)     MEC                    25

The value of MEC measured for the compound O=C(/C=C/C=C/c1ccc2c(c1)OCO2)Nc1ccccc1 turned out to be 50

Recorded MEC (compound O=C(/C=C/C=C/c1ccc2c(c1)OCO2)Nc1nc2ccccc2s1 ): 6.25

Looking up O=C(/C=C/C=C/c1ccc2c(c1)OCO2)Nc1ccc(CO)cc1 , I see its MEC listed as 6.25

Sure, the documented MEC for O=C(CCCCc1ccc2c(c1)OCO2)N1CCCCC1 is 50

* * *

Target: Quinolone resistance protein NorA (Staphylococcus aureus) (UniProt P0A0J7)
Sequence (whole entry): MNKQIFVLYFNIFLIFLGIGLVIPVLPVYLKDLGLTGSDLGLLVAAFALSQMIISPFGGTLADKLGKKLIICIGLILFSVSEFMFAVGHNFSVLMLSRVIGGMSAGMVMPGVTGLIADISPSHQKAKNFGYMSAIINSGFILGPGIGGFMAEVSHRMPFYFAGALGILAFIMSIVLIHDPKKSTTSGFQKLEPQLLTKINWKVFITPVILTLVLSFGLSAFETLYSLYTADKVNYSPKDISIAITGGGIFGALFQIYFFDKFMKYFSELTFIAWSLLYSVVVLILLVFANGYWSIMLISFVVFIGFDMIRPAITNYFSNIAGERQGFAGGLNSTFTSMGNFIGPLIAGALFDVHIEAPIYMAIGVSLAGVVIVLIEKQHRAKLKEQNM
Assay: Inhibition of NorA efflux pump in Staphylococcus aureus 1199B assessed as reduction of ciprofloxacin MIC after 24 hrs by broth checkerboard method; note: test concentration or dose not given here
METRIC: fold change (FC)
Returns: the value as a bare number; no unit string appended.

# count of solved cases: 5
> print(dat)
                                   compound  reported.measurement
1          O=C(CCCCc1ccc2c(c1)OCO2)N1CCCCC1                     2
2       CC(C)NC(=O)/C=C/C=C/c1ccc2c(c1)OCO2                     0
3  O=C(/C=C/C=C/c1ccc2c(c1)OCO2)Nc1ccc(C(=O)Nc2ccccc2)cc1                     2
4  N#Cc1cccc(NC(=O)/C=C/C=C/c2ccc3c(c2)OCO3)c1                     8
5  CC(=O)Nc1ccccc1NC(=O)CCCCc1ccc2c(c1)OCO2                     2

Given item CCC(CC)NC(=O)/C=C/C=C/c1ccc2c(c1)OCO2 , the value recorded as its fold change (FC) is 2

fold change (FC) in this record for O=C(/C=C/C=C/c1ccc2c(c1)OCO2)Nc1cccc(CO)c1 : 2

For this compound ( CC(=O)Nc1cccc(NC(=O)/C=C/C=C/c2ccc3c(c2)OCO3)c1 ), measured fold change (FC) is 4

Summary for this compound, CC(=O)Nc1ccccc1NC(=O)/C=C/C=C/c1ccc2c(c1)OCO2 : fold change (FC) is 4

Reported fold change (FC) ( CN1CCN(C(=O)/C=C/C=C/c2ccc3c(c2)OCO3)CC1 ) = 2

Please fill in: fold change (FC) reported for O=C(/C=C/C=C/c1ccc2c(c1)OCO2)Nc1ccccc1 = 4

What the record says about CCN(CC)C(=O)CCCCc1ccc2c(c1)OCO2 : fold change (FC) is 2
